These entries and their values trace back to paper PMC3142620.

ASSAY_SYSTEM: EphA2 (Homo sapiens, UniProt P29317)
Sequence (P29317 24-976): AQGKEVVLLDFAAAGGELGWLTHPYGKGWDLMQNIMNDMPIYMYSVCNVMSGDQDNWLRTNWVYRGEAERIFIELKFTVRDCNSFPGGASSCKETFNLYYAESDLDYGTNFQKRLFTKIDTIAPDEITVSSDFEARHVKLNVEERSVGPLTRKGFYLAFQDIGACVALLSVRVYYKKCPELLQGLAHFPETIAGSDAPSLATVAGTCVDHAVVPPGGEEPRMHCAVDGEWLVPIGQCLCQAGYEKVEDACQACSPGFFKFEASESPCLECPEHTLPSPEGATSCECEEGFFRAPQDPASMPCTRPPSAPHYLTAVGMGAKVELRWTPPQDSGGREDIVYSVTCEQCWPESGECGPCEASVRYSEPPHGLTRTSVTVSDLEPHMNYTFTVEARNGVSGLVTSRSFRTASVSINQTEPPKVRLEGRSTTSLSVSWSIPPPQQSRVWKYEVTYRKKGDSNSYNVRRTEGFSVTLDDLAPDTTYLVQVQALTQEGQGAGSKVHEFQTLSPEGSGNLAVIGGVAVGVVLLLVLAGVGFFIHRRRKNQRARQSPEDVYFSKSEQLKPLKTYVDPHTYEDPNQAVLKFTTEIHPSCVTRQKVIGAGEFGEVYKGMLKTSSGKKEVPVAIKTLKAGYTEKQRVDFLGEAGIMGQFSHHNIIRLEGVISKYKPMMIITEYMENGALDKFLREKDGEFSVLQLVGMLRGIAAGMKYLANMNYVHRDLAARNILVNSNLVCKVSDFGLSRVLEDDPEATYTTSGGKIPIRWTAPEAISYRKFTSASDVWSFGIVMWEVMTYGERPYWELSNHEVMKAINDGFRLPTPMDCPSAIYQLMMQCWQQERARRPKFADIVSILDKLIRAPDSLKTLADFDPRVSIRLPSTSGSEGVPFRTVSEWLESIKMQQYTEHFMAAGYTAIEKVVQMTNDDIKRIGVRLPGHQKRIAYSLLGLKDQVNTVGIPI
PROPERTY: Kd (µM)
Please give a number only; it is taken to be in µM.

input: // query Kd value for entry Nc1ncnc2c1ncn2[C@@H]1O[C@H](COP(=O)(O)OP(=O)(O)OP(=O)(O)O)[C@@H](O)[C@H]1O [ATP]
output: 22

###

ASSAY_SYSTEM: PYK2 (Homo sapiens)
Sequence (Q14289 whole entry): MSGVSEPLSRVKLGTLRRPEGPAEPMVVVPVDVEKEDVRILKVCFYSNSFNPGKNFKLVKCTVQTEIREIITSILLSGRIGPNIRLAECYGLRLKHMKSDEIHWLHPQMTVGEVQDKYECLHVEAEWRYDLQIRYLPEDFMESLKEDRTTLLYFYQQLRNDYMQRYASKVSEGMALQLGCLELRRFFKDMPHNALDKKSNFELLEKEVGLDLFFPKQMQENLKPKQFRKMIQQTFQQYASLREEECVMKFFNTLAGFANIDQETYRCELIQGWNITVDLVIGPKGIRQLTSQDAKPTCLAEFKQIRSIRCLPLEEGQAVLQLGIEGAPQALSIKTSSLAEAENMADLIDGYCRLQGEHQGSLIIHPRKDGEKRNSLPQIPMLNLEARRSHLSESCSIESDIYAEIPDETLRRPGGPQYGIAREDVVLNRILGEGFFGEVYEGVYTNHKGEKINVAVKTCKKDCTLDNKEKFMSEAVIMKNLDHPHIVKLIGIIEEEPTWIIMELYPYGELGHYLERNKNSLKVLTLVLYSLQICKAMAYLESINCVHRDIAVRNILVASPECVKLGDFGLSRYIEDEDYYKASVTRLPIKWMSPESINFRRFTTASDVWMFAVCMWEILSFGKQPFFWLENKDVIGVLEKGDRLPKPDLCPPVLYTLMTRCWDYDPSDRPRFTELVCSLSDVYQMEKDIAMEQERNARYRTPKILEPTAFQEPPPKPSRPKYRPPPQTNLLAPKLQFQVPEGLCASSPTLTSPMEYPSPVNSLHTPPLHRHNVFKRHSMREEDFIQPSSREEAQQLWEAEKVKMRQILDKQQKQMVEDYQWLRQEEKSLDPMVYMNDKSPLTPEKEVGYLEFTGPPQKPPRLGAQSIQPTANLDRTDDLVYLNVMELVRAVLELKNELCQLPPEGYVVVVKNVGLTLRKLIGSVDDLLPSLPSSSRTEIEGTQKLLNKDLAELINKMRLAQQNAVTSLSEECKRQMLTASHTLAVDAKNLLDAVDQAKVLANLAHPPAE
PROPERTY: pKd
pKd field: float, defined as -log10 of concentration (mol/L).

input: // query pKd value for entry `Nc1ncnc2c1ncn2[C@@H]1O[C@H](COP(=O)(O)OP(=O)(O)OP(=O)(O)O)[C@@H](O)[C@H]1O`
output: 4.15
